biological target: UniProt:P41595; experiment: Human 5-HT2B FLIPR calcium mobilization assay; assay type: cell-based; parameters: expressed in transfected cells; host or cells: HEK293; details: calcium mobilization FLIPR, HEK293 cells; relative to maximum response of serotonin
endpoint.label: Emax (% of serotonin)

Would you please look over these solved cases?
molecule	Emax (% of serotonin)
[2H]C([2H])(c1c[nH]c2ccc(OCCCCN3C(=O)c4ccccc4C3=O)cc12)[C@H]1CCCN1C([2H])([2H])[2H] [(R) I-244]	92.75 % of serotonin
[2H]C([2H])(c1c[nH]c2ccc(OCCCCCN3C(=O)[C@H]4CCCC[C@H]4C3=O)cc12)[C@H]1CCCN1C([2H])([2H])[2H] [Cis (R) I-248]	69.85 % of serotonin

Please state, for each entry, its recorded Emax (% of serotonin).
1. COCCN1CCC[C@@H]1Cc1c[nH]c2ccc(OC)cc12 [(R) I-98]
2. CSc1ccc2[nH]cc(C[C@H]3CCCN3C)c2c1 [(R) I-1]
3. [2H]C([2H])(c1c[nH]c2ccc(OCCCCCN3C(=O)c4ccccc4C3=O)cc12)[C@H]1CCCN1C([2H])([2H])[2H] [(R) I-245]

1: 52.7 % of serotonin; 2: 62.94 % of serotonin; 3: 53.91 % of serotonin

* * *

Assignment: determine reported Remaining Percentage for the given molecules.
assay: Liver microsomes stability, mouse; format: in vitro ADME; conditions: mouse liver microsomes, Without Cofactors, 0 min
Give bare numbers, in %.

molecule	measured
[2H]C([2H])(c1c[nH]c2ccc(OCCCCCN3C(=O)c4ccccc4C3=O)cc12)[C@H]1CCCN1C([2H])([2H])[2H] [(R) I-245]	100.00
COc1ccc2[nH]cc(CCN(C)C)c2c1	100.00

Please state, for each entry, its recorded Remaining Percentage.
1. O=C(O)Cc1ccccc1Nc1c(Cl)cccc1Cl
2. [2H]C([2H])(c1c[nH]c2ccc(OCCCCCN3C(=O)C4CCCCC4C3=O)cc12)[C@H]1CCCN1C([2H])([2H])[2H] (mixture of isomers) [Rac (R) I-248]
3. [2H]C([2H])(c1c[nH]c2ccc(OCCCCN3C(=O)c4ccccc4C3=O)cc12)[C@H]1CCCN1C([2H])([2H])[2H] [(R) I-244]

[100.00, 100.00, 100.00]

* * *

assay: Liver microsomes stability, rat; assay type: in vitro ADME; conditions: rat liver microsomes, Without Cofactors, 30 min
endpoint.label: Remaining Percentage (%)
Numbers only, in %.

Would you please look over these solved cases?
molecule	Remaining Percentage, %
[2H]C([2H])(c1c[nH]c2ccc(OCCCCCN3C(=O)C4CCCCC4C3=O)cc12)[C@H]1CCCN1C([2H])([2H])[2H] (mixture of isomers) [Rac (R) I-248]	94.04
[2H]C([2H])(c1c[nH]c2ccc(OCCCCCN3C(=O)c4ccccc4C3=O)cc12)[C@H]1CCCN1C([2H])([2H])[2H] [(R) I-245]	95.83
COc1ccc2[nH]cc(CCN(C)C)c2c1	49.55
O=C(O)Cc1ccccc1Nc1c(Cl)cccc1Cl	102.19

Please state, for each entry, its recorded Remaining Percentage.
1. COCCN1CCC[C@@H]1Cc1c[nH]c2ccc(OC)cc12 [(R) I-98]
2. [2H]C([2H])(c1c[nH]c2ccc(OCCCCN3C(=O)c4ccccc4C3=O)cc12)[C@H]1CCCN1C([2H])([2H])[2H] [(R) I-244]

100.00
94.87

* * *

assay: Pharmacokinetic studies in rat (i.v.); format: in vivo; details: male, Sprague-Dawley, plasma, iv, 1.19 mg/kg, rat plasma, i.v., dose 1.19 mg/kg, 1 h, rat R02, read-out: Plasma concentration, R02
endpoint.label: concentration at 1 h (ng/mL)
Give bare numbers, in ng/mL.

// concentration at 1 h lookup, key: CSc1ccc2[nH]cc(C[C@H]3CCCN3C)c2c1 [(R) I-1]
30.3

* * *

biological target: human 5-HT2B receptor (Homo sapiens, UniProt P41595); assay: Human 5-HT2B positive allosteric modulator (PAM) assay; assay type: cell-based; set-up: expressed in transfected cells; host or cells: HEK293
Sequence (P41595 whole entry): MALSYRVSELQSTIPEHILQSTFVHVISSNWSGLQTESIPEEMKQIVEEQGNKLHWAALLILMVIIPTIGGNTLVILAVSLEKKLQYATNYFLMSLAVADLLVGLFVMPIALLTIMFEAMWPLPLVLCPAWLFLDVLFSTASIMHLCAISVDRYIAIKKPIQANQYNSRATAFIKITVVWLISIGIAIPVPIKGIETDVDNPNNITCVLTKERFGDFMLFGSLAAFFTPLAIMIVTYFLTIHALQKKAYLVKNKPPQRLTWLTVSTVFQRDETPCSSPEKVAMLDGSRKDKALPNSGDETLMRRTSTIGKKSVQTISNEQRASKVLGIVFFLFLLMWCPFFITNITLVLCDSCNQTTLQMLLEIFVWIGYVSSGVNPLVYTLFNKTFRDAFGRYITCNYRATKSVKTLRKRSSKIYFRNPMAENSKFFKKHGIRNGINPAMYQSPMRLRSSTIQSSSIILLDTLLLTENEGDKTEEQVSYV
pEC50: −log10 of the molar value.
endpoint.label: pEC50

// pEC50 lookup, key: CSc1ccc2[nH]cc(C[C@H]3CCCN3C)c2c1 [(R) I-1]
< 5.00

* * *

Assignment: determine reported RFU@10 μM for the given molecules.
target: human 5-hydroxytryptamine receptor 1A (5-HT1A) (Homo sapiens, UniProt P08908); experiment: Human 5-HT1A functional FLIPR assay (agonist mode); format: cell-based; design: expressed in transfected cells; host or cells: Flp-In CHO; conditions: normalized fluorescence reading (Fmax−Fmin) at 10 μM; curve fitting with activation (%)
Sequence (P08908 whole entry): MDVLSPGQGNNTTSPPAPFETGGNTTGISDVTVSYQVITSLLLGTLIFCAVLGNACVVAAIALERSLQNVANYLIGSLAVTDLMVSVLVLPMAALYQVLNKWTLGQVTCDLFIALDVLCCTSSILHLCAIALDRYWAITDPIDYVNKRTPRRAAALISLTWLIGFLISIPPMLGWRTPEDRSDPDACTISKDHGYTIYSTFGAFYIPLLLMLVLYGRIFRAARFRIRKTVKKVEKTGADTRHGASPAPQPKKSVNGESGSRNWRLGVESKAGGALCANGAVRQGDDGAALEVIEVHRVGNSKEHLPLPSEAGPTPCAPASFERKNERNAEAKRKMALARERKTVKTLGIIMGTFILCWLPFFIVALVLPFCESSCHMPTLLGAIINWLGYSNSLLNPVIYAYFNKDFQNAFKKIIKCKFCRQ
Answers are plain numbers, in RFU.

molecule	RFU@10 μM (RFU)
[2H]C([2H])(c1c[nH]c2ccc(OCCCCCN3C(=O)C4CCCCC4C3=O)cc12)[C@H]1CCCN1C([2H])([2H])[2H] (mixture of isomers) [Rac (R) I-248]	601
[2H]C([2H])(c1c[nH]c2ccc(OCCCCCN3C(=O)c4ccccc4C3=O)cc12)[C@H]1CCCN1C([2H])([2H])[2H] [(R) I-245]	899
CN(C)CCc1c[nH]c2ccccc12	204

// below: RFU@10 μM requested for another molecule
// RFU@10 μM lookup, key: [2H]C([2H])(c1c[nH]c2ccc(OCCCCN3C(=O)c4ccccc4C3=O)cc12)[C@H]1CCCN1C([2H])([2H])[2H] [(R) I-244]
616

* * *

target: human 5-HT2C receptor (Homo sapiens, UniProt P28335); construct: expressed in transfected cells; host or cells: U2OS; experiment: cell-based; details: calcium mobilization FLIPR, U2OS cells; relative to maximum response of serotonin
Sequence (P28335 33-458): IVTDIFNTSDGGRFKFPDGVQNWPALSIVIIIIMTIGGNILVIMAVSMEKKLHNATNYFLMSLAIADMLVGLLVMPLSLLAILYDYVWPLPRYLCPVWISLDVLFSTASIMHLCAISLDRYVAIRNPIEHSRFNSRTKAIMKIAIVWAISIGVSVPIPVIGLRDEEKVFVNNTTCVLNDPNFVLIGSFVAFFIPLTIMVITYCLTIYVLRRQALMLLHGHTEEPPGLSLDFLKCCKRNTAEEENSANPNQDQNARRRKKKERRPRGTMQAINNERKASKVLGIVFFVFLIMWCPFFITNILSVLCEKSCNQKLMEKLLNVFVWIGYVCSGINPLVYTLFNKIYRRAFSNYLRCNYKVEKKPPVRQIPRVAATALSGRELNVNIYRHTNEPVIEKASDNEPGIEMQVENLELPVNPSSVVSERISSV
Assignment: determine reported Emax (% of serotonin) for the given compounds.

Would you please look over these solved cases?
compound	endpoint.label	measured
[2H]C([2H])(c1c[nH]c2ccc(OCCCCCN3C(=O)c4ccccc4C3=O)cc12)[C@H]1CCCN1C([2H])([2H])[2H] [(R) I-245]	Emax (% of serotonin)	83.29 % of serotonin
CSc1ccc2[nH]cc(C[C@H]3CCCN3C)c2c1 [(R) I-1]	Emax (% of serotonin)	95.27 % of serotonin
[2H]C([2H])(c1c[nH]c2ccc(OCCCCCN3C(=O)[C@H]4CCCC[C@H]4C3=O)cc12)[C@H]1CCCN1C([2H])([2H])[2H] [Cis (R) I-248]	Emax (% of serotonin)	89.99 % of serotonin
COCCN1CCC[C@@H]1Cc1c[nH]c2ccc(OC)cc12 [(R) I-98]	Emax (% of serotonin)	95.23 % of serotonin

// below: Emax (% of serotonin) requested for another compound
// Emax (% of serotonin) lookup, key: [2H]C([2H])(c1c[nH]c2ccc(OCCCCN3C(=O)c4ccccc4C3=O)cc12)[C@H]1CCCN1C([2H])([2H])[2H] [(R) I-244]
87.27 % of serotonin

* * *

assay: Liver microsomes stability, mouse; format: in vitro ADME; settings: mouse liver microsomes, With Cofactors, 30 min
endpoint.label: Remaining Percentage (%)
Answers are plain numbers, in %.

Would you please look over these solved cases?
compound	measured
[2H]C([2H])(c1c[nH]c2ccc(OCCCCCN3C(=O)c4ccccc4C3=O)cc12)[C@H]1CCCN1C([2H])([2H])[2H] [(R) I-245]	1.72
O=C(O)Cc1ccccc1Nc1c(Cl)cccc1Cl [Diclofenac]	45.55
COCCN1CCC[C@@H]1Cc1c[nH]c2ccc(OC)cc12 [(R) I-98]	100.00
COc1ccc2[nH]cc(CCN(C)C)c2c1 [5-MeO-DMT]	61.84
[2H]C([2H])(c1c[nH]c2ccc(OCCCCN3C(=O)c4ccccc4C3=O)cc12)[C@H]1CCCN1C([2H])([2H])[2H] [(R) I-244]	0.00

// below: Remaining Percentage requested for another compound
// Remaining Percentage lookup, key: [2H]C([2H])(c1c[nH]c2ccc(OCCCCCN3C(=O)C4CCCCC4C3=O)cc12)[C@H]1CCCN1C([2H])([2H])[2H] (mixture of isomers) [Rac (R) I-248]
0.15

* * *

target: human 5-HT2B receptor (Homo sapiens, UniProt P41595); assay: Human 5-HT2B FLIPR calcium mobilization assay; assay type: cell-based; design: expressed in transfected cells; host or cells: HEK293; conditions: calcium mobilization FLIPR, stably transfected HEK293 cells; read-out: EC50
endpoint.label: pEC50
Numbers only, as −log10 of the molar value.

Would you please look over these solved cases?
compound	measured
[2H]C([2H])(c1c[nH]c2ccc(OCCCCN3C(=O)c4ccccc4C3=O)cc12)[C@H]1CCCN1C([2H])([2H])[2H] [(R) I-244]	8.60
COCCN1CCC[C@@H]1Cc1c[nH]c2ccc(OC)cc12 [(R) I-98]	8.54
[2H]C([2H])(c1c[nH]c2ccc(OCCCCCN3C(=O)[C@H]4CCCC[C@H]4C3=O)cc12)[C@H]1CCCN1C([2H])([2H])[2H] [Cis (R) I-248]	7.60

Recall the recorded pEC50 for [2H]C([2H])(c1c[nH]c2ccc(OCCCCCN3C(=O)c4ccccc4C3=O)cc12)[C@H]1CCCN1C([2H])([2H])[2H] [(R) I-245] with human 5-HT2B receptor (Homo sapiens, UniProt P41595) and state it.
7.95
